# TEST SUMMARY: in vitro
# DETAILS: human, hela cells, % viability
ENDPOINT NAME: viability at 28.5 h, 10 µM (%)
Write the value in % as a bare number.

compound="Clc1ccc(Nc2ncnc3c2cnn3-c2ccc(Cl)cc2)cc1 [CBK287356]" assay_value=86.1
compound="c1ccc(Cn2cc(-c3nccnc3OCc3ccccn3)cn2)cc1 [CBK107088]" assay_value=98.9

get_value(item= CS(=O)(=O)c1ccc(-c2ccc3c(c2)COC(C2CCN(C(=O)OCc4ccccc4)CC2)O3)cc1 (stereo not shown) [CBK144643] , readout=viability at 28.5 h, 10 µM) returns 87.9

get_value(item= CC(C)[C@H](NC(=O)c1cc2cc(Cl)ccc2n1C)C(=O)N1CCC(C(=O)O)CC1 [CBK286771] , readout=viability at 28.5 h, 10 µM) returns 107

get_value(item= Cc1cc(C)n(CCCC(=O)N2CC3(CCNCC3)CC2C(=O)O)n1 (stereo not shown) [CBK307174] , readout=viability at 28.5 h, 10 µM) returns 89.5

get_value(item= O=[N+]([O-])c1ccccc1NCCNS(=O)(=O)c1ccccc1 [CBK263552] , readout=viability at 28.5 h, 10 µM) returns 89

get_value(item= Cc1nc2sc(C(=O)OCc3cc(=O)oc4cc5c(cc34)CCC5)c(C)c2c(=O)[nH]1 [CBK297528] , readout=viability at 28.5 h, 10 µM) returns 114

get_value(item= CN1CCN(C)C(COc2ccc(C(F)(F)F)cn2)C1 (stereo not shown) [CBK113288] , readout=viability at 28.5 h, 10 µM) returns 96.8

get_value(item= COc1ccc2c(CN(C)Cc3cc(C)[nH]n3)cn(C)c2c1 [CBK281734] , readout=viability at 28.5 h, 10 µM) returns 103

get_value(item= N#Cc1c(NC(=O)CSc2ncnc3c2cnn3-c2ccccc2)sc2c1CCCC2 [CBK269478] , readout=viability at 28.5 h, 10 µM) returns 92.6

get_value(item= COc1cc2nc(NC(=O)C3COc4ccccc4O3)sc2cc1OC (stereo not shown) [CBK287702] , readout=viability at 28.5 h, 10 µM) returns 109

get_value(item= O=C(CCN1CCN(CCO)CC1)Nc1cccc(Br)c1 [CBK058502] , readout=viability at 28.5 h, 10 µM) returns 102
